Record form. Attribute: IC50. Fill in for each entry.
Study Target: α1 -ADRENOCEPTOR
Assay Method Text: α1-adrenoceptor binding ([3H]-prazosin)
Design: species or system guinea-pig
Experimental Conditions: Table 4; IC50 and nM only stated in text; read-out: α1 -ADRENOCEPTOR
Counter-ions that a name gives are not always drawn.

For record CCN(CC)CCOC(=O)C1(c2ccccc2)CCCCC1.Cl [Compound 15, hydrochloride] the listed IC50 is 30100 nM

For record O=C(OCCN1CCCC1)C1(c2ccccc2)CCCCC1 [Compound 8, hydrochloride] the listed IC50 is 23200 nM

For record O=C(OCCN1CCOCC1)C1(c2ccccc2)CCCCC1 [Compound 12, hydrochloride] the listed IC50 is > 100000 nM

For record O=C(OCCN1CCCCC1)C1(c2ccccc2)CCCCC1 [Compound 3, hydrochloride] the listed IC50 is 24100 nM

For record CN(C)CCOC(=O)C1(c2ccccc2)CCCCC1.Cl [Compound 19, hydrochloride] the listed IC50 is 29000 nM
